viability, T/C: recorded values
# Tested on: 362531-283-R-J2-PDC complex spheroid viability
# procedure text: Anticancer human tumor 362531-283-R-J2-PDC patient-derived colon adenocarcinoma cell line growth inhibition [RAS]
# condition summary: second compound 0.03 µM; first compound 0.000949 µM; hits give low values

molecule	assay target	viability, T/C, %
CC1(C)CCC(Nc2ncc(C(F)(F)F)c(-c3c[nH]c4c(P(C)(C)=O)c(C#N)ccc34)n2)CN1 (centres undefined) + CCn1c(-c2cc(N3CCN(C)CC3)cnc2C(C)OC)c2c3cc(ccc31)-c1csc(n1)CC(NC(=O)C1CC1C)C(=O)N1CCCC(N1)C(=O)OCC(C)(C)C2	362531-283-R-J2-PDC complex spheroid viability	101
CC1(C)CCC(Nc2ncc(C(F)(F)F)c(-c3c[nH]c4c(P(C)(C)=O)c(C#N)ccc34)n2)CN1 (centres undefined) + CCn1c(-c2cccnc2C(C)OC)c2c3cc(ccc31)N1CCOC(CC(NC(=O)C(C(C)C)N(C)C(=O)C3(F)CCN(C(=O)C#CC(C)(C)N(C)C)CC3)C(=O)N3CCCC(N3)C(=O)OCC(C)(C)C2)C1	362531-283-R-J2-PDC complex spheroid viability	98.5
CCc1c2c(nc3ccc(O)cc13)-c1cc3c(c(=O)n1C2)COC(=O)[C@]3(O)CC + CCn1c(-c2cc(N3CCN(C)CC3)cnc2C(C)OC)c2c3cc(ccc31)-c1csc(n1)CC(NC(=O)C1CC1C)C(=O)N1CCCC(N1)C(=O)OCC(C)(C)C2	362531-283-R-J2-PDC complex spheroid viability	94.3
CCc1c2c(nc3ccc(O)cc13)-c1cc3c(c(=O)n1C2)COC(=O)[C@]3(O)CC + CCn1c(-c2cccnc2C(C)OC)c2c3cc(ccc31)N1CCOC(CC(NC(=O)C(C(C)C)N(C)C(=O)C3(F)CCN(C(=O)C#CC(C)(C)N(C)C)CC3)C(=O)N3CCCC(N3)C(=O)OCC(C)(C)C2)C1	362531-283-R-J2-PDC complex spheroid viability	103

----------
# Tested on: 362531-283-R-J2-PDC complex spheroid viability
# procedure text: Anticancer human tumor 362531-283-R-J2-PDC cell line growth inhibition [RAS]; active = viability on the fitted dose curve at most 10% of control; inactive = the rest;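 also: spheroids exposed to the agents for 7 days before readout; luminescence viability as percent of DMSO vehicle control wells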
# condition summary: second compound 0.3 µM; first compound 1 µM
Classes used: TRUE for active, FALSE for inactive

compound	group
C=CC(=O)Nc1cc(Nc2nccc(-c3cn(C)c4ccccc34)n2)c(OC)cc1N(C)CCN(C)C + CCn1c(-c2cc(N3CCN(C)CC3)cnc2C(C)OC)c2c3cc(ccc31)-c1csc(n1)CC(NC(=O)C1CC1C)C(=O)N1CCCC(N1)C(=O)OCC(C)(C)C2	TRUE
CC1(O)CCCC1n1c(=O)c(C(F)F)cc2cnc(NC3CCN(S(C)(=O)=O)CC3)nc21 (centres undefined) + CCn1c(-c2cccnc2C(C)OC)c2c3cc(ccc31)N1CCOC(CC(NC(=O)C(C(C)C)N(C)C(=O)C3(F)CCN(C(=O)C#CC(C)(C)N(C)C)CC3)C(=O)N3CCCC(N3)C(=O)OCC(C)(C)C2)C1	FALSE
C=CC(=O)N1CCN(c2nc(OCC3CCCN3C)nc3c(F)c(-c4nc(N)cc(C)c4C(F)(F)F)c(Cl)cc23)C(C)C1 (centres undefined) + CCn1c(-c2cccnc2C(C)OC)c2c3cc(ccc31)N1CCOC(CC(NC(=O)C(C(C)C)N(C)C(=O)C3(F)CCN(C(=O)C#CC(C)(C)N(C)C)CC3)C(=O)N3CCCC(N3)C(=O)OCC(C)(C)C2)C1	FALSE
C=CC(=O)Nc1cc(Nc2nccc(-c3cn(C)c4ccccc34)n2)c(OC)cc1N(C)CCN(C)C + CCn1c(-c2cccnc2C(C)OC)c2c3cc(ccc31)N1CCOC(CC(NC(=O)C(C(C)C)N(C)C(=O)C3(F)CCN(C(=O)C#CC(C)(C)N(C)C)CC3)C(=O)N3CCCC(N3)C(=O)OCC(C)(C)C2)C1	FALSE

----------
# Tested on: 362531-283-R-J2-PDC complex spheroid viability
# procedure text: Anticancer human tumor 362531-283-R-J2-PDC cell line growth inhibition [RAS];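 also: spheroids exposed to the agents for 7 days before readout; luminescence viability as percent of DMSO vehicle control wells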
# condition summary: second compound 0.0316 µM; first compound 0.316 µM; hits give low values
Listed here: items and their measured viability, T/C.

compound	viability, T/C [%]
CCN1CCN(Cc2ccc(Nc3ncc(F)c(-c4cc(F)c5nc(C)n(C(C)C)c5c4)n3)nc2)CC1 + C=CC(=O)N1CCN(c2nc(OCC3CCCN3C)nc3c(F)c(-c4nc(N)cc(C)c4C(F)(F)F)c(Cl)cc23)C(C)C1	66.9
CC1(O)CCCC1n1c(=O)c(C(F)F)cc2cnc(NC3CCN(S(C)(=O)=O)CC3)nc21 (stereo not given) + C#Cc1c(F)ccc2cc(O)cc(-c3ncc4c(N5CC6CCC(C5)N6)nc(OCC56CCCN5CC(F)C6)nc4c3F)c12	71.8
CC(Nc1ccc2c(c1)OCCn1cc(N3C(=O)OCC3C(F)F)nc1-2)C(N)=O (stereo not given) + C=CC(=O)N1CCN(c2nc(OCC3CCCN3C)nc3c(F)c(-c4nc(N)cc(C)c4C(F)(F)F)c(Cl)cc23)C(C)C1	63.7
CC(C)NCC(C(=O)N1CCN(c2ncnc3c2C(C)CC3O)CC1)c1ccc(Cl)cc1 (stereo not given) + C#Cc1c(F)ccc2cc(O)cc(-c3ncc4c(N5CC6CCC(C5)N6)nc(OCC56CCCN5CC(F)C6)nc4c3F)c12	89.4
Nc1ccn(C2OC(CO)C(O)C2(F)F)c(=O)n1 (stereo not given) + C#Cc1c(F)ccc2cc(O)cc(-c3ncc4c(N5CC6CCC(C5)N6)nc(OCC56CCCN5CC(F)C6)nc4c3F)c12	20.5
Cc1nc(N2CCC3(CC2)COC(C)C3N)c(CO)nc1Sc1ccnc(N)c1Cl (stereo not given) + C=CC(=O)N1CCN(c2nc(OCC3CCCN3C)nc3c(F)c(-c4nc(N)cc(C)c4C(F)(F)F)c(Cl)cc23)C(C)C1	99.3
O=C(c1ccc(F)c(F)c1Nc1ccc(I)cc1F)N1CC(O)([C@@H]2CCCCN2)C1 + C=CC(=O)N1CCN(c2nc(OCC3CCCN3C)nc3c(F)c(-c4nc(N)cc(C)c4C(F)(F)F)c(Cl)cc23)C(C)C1	48.9
CC(=O)OC12COC1CC(O)C1(C)C(=O)C(O)C3=C(C)C(OC(=O)C(O)C(NC(=O)OC(C)(C)C)c4ccccc4)CC(O)(C(OC(=O)c4ccccc4)C21)C3(C)C (stereo not given) + C=CC(=O)N1CCN(c2nc(OCC3CCCN3C)nc3c(F)c(-c4nc(N)cc(C)c4C(F)(F)F)c(Cl)cc23)C(C)C1	21.5
CCC(CC)c1cc(NC2CCC(N)C2)n2nccc2n1 (stereo not given) + C=CC(=O)N1CCN(c2nc(OCC3CCCN3C)nc3c(F)c(-c4nc(N)cc(C)c4C(F)(F)F)c(Cl)cc23)C(C)C1	100
O=C(c1ccc(F)c(F)c1Nc1ccc(I)cc1F)N1CC(O)([C@@H]2CCCCN2)C1 + C#Cc1c(F)ccc2cc(O)cc(-c3ncc4c(N5CC6CCC(C5)N6)nc(OCC56CCCN5CC(F)C6)nc4c3F)c12	62.9

----------
# System: 362531-283-R-J2-PDC complex spheroid viability
# procedure text: Anticancer human tumor 362531-283-R-J2-PDC cell line growth inhibition [RAS];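 also: spheroids exposed to the agents for 7 days before readout; luminescence viability as percent of DMSO vehicle control wells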
# condition summary: second compound 0.03 µM; first compound 3.16 µM; hits give low values
Exam item: assign TRUE to entries whose viability, T/C is below 80% and FALSE to entries at or above 80%. Note that a value of exactly 80% receives FALSE.

compound	group
CC(=O)OC12COC1CC(O)C1(C)C(=O)C(O)C3=C(C)C(OC(=O)C(O)C(NC(=O)OC(C)(C)C)c4ccccc4)CC(O)(C(OC(=O)c4ccccc4)C21)C3(C)C (configuration not stated) + CCn1c(-c2cccnc2C(C)OC)c2c3cc(ccc31)N1CCOC(CC(NC(=O)C(C(C)C)N(C)C(=O)C3(F)CCN(C(=O)C#CC(C)(C)N(C)C)CC3)C(=O)N3CCCC(N3)C(=O)OCC(C)(C)C2)C1	TRUE
CCC(CC)c1cc(NC2CCC(N)C2)n2nccc2n1 (configuration not stated) + CCn1c(-c2cc(N3CCN(C)CC3)cnc2C(C)OC)c2c3cc(ccc31)-c1csc(n1)CC(NC(=O)C1CC1C)C(=O)N1CCCC(N1)C(=O)OCC(C)(C)C2	TRUE
C[C@@H](NC(=O)c1ncnc(N)c1Cl)c1ncc(C(=O)Nc2cc(C(F)(F)F)c(Cl)cn2)s1 + CCn1c(-c2cccnc2C(C)OC)c2c3cc(ccc31)N1CCOC(CC(NC(=O)C(C(C)C)N(C)C(=O)C3(F)CCN(C(=O)C#CC(C)(C)N(C)C)CC3)C(=O)N3CCCC(N3)C(=O)OCC(C)(C)C2)C1	FALSE
NC1c2ccccc2OC12CCN(c1cnc3c(N4CCCc5ncccc54)n[nH]c3n1)CC2 (configuration not stated) + CCn1c(-c2cccnc2C(C)OC)c2c3cc(ccc31)N1CCOC(CC(NC(=O)C(C(C)C)N(C)C(=O)C3(F)CCN(C(=O)C#CC(C)(C)N(C)C)CC3)C(=O)N3CCCC(N3)C(=O)OCC(C)(C)C2)C1	TRUE
CC(C)NCC(C(=O)N1CCN(c2ncnc3c2C(C)CC3O)CC1)c1ccc(Cl)cc1 (configuration not stated) + CCn1c(-c2cccnc2C(C)OC)c2c3cc(ccc31)N1CCOC(CC(NC(=O)C(C(C)C)N(C)C(=O)C3(F)CCN(C(=O)C#CC(C)(C)N(C)C)CC3)C(=O)N3CCCC(N3)C(=O)OCC(C)(C)C2)C1	FALSE
Cc1nc(N2CCC3(CC2)COC(C)C3N)c(CO)nc1Sc1ccnc(N)c1Cl (configuration not stated) + CCn1c(-c2cc(N3CCN(C)CC3)cnc2C(C)OC)c2c3cc(ccc31)-c1csc(n1)CC(NC(=O)C1CC1C)C(=O)N1CCCC(N1)C(=O)OCC(C)(C)C2	TRUE
CC(Nc1ccc2c(c1)OCCn1cc(N3C(=O)OCC3C(F)F)nc1-2)C(N)=O (configuration not stated) + CCn1c(-c2cccnc2C(C)OC)c2c3cc(ccc31)N1CCOC(CC(NC(=O)C(C(C)C)N(C)C(=O)C3(F)CCN(C(=O)C#CC(C)(C)N(C)C)CC3)C(=O)N3CCCC(N3)C(=O)OCC(C)(C)C2)C1	TRUE
